The measurements presented in this section are drawn from the supplement of paper PMC10567573.

B1: PDZK1 (parent)
chain: RETASLKLLPHQPRIVEMKKGSNG

- Variants of: B1
- assayProcedure: protein stability index of a GFP-peptide fusion (GPS, HEK-293T) (PSI 1-6); higher = more stable;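 also: lentivirally expressed fusions sorted by FACS into six bins by GFP to DsRed ratio, PSI derived from sequencing read proportions per bin multiplied by bin number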
- testContext: c terminus: a fixed tail appended
experimentalEndpoint: protein stability index

> print(dat)
    mutantname     experimentalendpoint  measurednumber
 1        M18S  protein stability index            4.79
 2        K19T  protein stability index            2.61
 3         L9P  protein stability index               3
 4        I15C  protein stability index             4.3
 5         T3R  protein stability index            3.28
 6        P13T  protein stability index            3.99
 7        S22F  protein stability index            2.47
 8         A4V  protein stability index            3.21
 9         T3K  protein stability index            3.53
10        V16I  protein stability index             3.9
11        I15P  protein stability index            4.39
12        G21W  protein stability index             2.6
13         K7A  protein stability index            4.19
14        Q12L  protein stability index            3.27
15        H11P  protein stability index            3.25
16        I15D  protein stability index            4.66
17        G24Q  protein stability index            4.58
18         L8D  protein stability index             3.4
19         K7F  protein stability index            3.07
20        G21S  protein stability index            3.37
21        M18L  protein stability index            4.15
22        M18A  protein stability index            4.51
23        Q12F  protein stability index            2.97
24         E2R  protein stability index            3.63
25         E2A  protein stability index            2.73
26        G24H  protein stability index            4.17
27         T3H  protein stability index            3.31
28        P13R  protein stability index            3.77
29        P13Q  protein stability index            4.81
30        R14M  protein stability index            2.93
31        H11I  protein stability index            3.59
32        M18P  protein stability index            4.58
33         K7Q  protein stability index            4.74
34        R14C  protein stability index            3.63
